System: ES7 (Ewing's Sarcoma);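 further: after 72 h of two-drug dosing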
Test: Bliss excess, mean over the matrix (fraction); higher = more synergy
Endpoint: Bliss excess
Just the number, please, no unit after it.

Compound	Tested On	Bliss excess
Cc1c2c(nn1C)CSCc1cc(n(C)n1)CSc1cc(c3ccccc3c1)OCCCc1c(C(=O)O)n(C)c3c-2c(Cl)ccc13 [AZD5991] + CC(=O)O[C@H]1C(=O)[C@@]2(C)[C@H]([C@H](OC(=O)c3ccccc3)[C@]3(O)C[C@H](OC(=O)[C@H](O)[C@@H](NC(=O)c4ccccc4)c4ccccc4)C(C)=C1C3(C)C)[C@]1(OC(C)=O)CO[C@@H]1C[C@@H]2O [Paclitaxel] (first compound max 1 µM, 7x7, partner max 3 µM)	ES7 (Ewing's Sarcoma)	-0.06

Task: Reported Bliss excess for COc1cccc(OCCCN)c1-c1cc(Nc2cnc(C#N)cn2)n[nH]1 [Prexasertib] + C=CCn1c(=O)c2cnc(Nc3ccc(N4CCN(C)CC4)cc3)nc2n1-c1cccc(C(C)(C)O)n1 [AZD1775] (first compound max 1 µM, partner max 1 µM) : what is it?
Result: 0.0597

Task: Reported Bliss excess for C[C@@H](Oc1cc(-c2cnn(C3CCNCC3)c2)cnc1N)c1c(Cl)ccc(F)c1Cl [Crizotinib] + Cn1cnc2c(F)c(Nc3ccc(Br)cc3Cl)c(C(=O)NOCCO)cc21 [Selumetinib] (first compound max 10 µM, 7x7, partner max 10 µM) : what is it?
Result: -0.0134

Task: Reported Bliss excess for CC(=O)Nc1cccc(-n2c(=O)n(C3CC3)c(=O)c3c(Nc4ccc(I)cc4F)n(C)c(=O)c(C)c32)c1 [Trametinib] + Cc1nc(-c2cn3c(n2)-c2ccc(-c4cnn(C(C)(C)C(N)=O)c4)cc2OCC3)n(C(C)C)n1 [Taselisib] (first compound max 1 µM, 7x7, partner max 10 µM) : what is it?
Result: 0.0164
